Cited source: patent US11524966B1

Biological target: USP25 (USP25-His6, Boston Biochem E-546) (Homo sapiens, UniProt Q9UHP3)
Construct: His6; purchased Boston Biochem E-546
Sequence (Q9UHP3 1-1055): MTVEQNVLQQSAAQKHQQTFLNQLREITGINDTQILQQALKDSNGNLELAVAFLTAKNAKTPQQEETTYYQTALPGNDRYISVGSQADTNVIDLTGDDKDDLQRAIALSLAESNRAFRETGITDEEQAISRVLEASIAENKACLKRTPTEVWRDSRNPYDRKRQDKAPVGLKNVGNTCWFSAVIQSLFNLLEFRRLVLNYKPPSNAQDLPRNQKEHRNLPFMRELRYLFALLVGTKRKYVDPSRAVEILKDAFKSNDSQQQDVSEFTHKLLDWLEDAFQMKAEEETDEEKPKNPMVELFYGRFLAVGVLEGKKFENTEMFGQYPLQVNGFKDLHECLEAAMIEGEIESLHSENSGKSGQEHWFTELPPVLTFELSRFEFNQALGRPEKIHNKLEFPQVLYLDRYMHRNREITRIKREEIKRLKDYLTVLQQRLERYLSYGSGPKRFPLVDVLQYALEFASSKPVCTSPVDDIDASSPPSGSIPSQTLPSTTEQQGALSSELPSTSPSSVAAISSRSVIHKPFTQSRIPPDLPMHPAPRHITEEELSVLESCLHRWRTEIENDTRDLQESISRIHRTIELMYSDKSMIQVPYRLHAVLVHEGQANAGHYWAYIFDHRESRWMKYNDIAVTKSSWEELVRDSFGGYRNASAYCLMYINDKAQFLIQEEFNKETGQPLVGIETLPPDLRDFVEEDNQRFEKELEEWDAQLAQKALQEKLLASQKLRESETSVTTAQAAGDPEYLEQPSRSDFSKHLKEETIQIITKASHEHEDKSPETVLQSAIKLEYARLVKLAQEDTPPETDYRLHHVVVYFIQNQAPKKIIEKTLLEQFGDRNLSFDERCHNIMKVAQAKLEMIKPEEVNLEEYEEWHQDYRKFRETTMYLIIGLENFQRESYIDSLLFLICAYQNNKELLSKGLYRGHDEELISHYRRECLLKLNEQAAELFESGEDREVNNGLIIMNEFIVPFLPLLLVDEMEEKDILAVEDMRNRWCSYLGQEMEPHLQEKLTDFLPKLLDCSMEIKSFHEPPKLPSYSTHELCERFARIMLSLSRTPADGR
Assay: Ubiquitin-Rhodamine 110 Assay for USP25 Activity, Example A-2
Format: biochemical
Conditions: Ubiquitin-Rhodamine 110 assay, Example A-2; read-out: USP25 A-2 IC50 range
pIC50: −log10 of the molar value.
observation_type: pIC50

Requested field: pIC50. Item: COc1nc2sc(C(=O)N[C@H]3CCc4cc(N5C[C@H](OC)[C@@H](N)C5)ccc4C3)c(N)c2cc1F
< 5.70

Try this molecule next: COC[C@@]1(C)CN(c2ccc3c(n2)CC[C@H](NC(=O)c2sc4nc(C)ccc4c2N)C3)C[C@@H]1N
5.70 to 6.70

What about CC(=O)N1CCCc2cc(C(=O)N[C@H]3COc4cc(N5CCNCC5)ccc4C3)ccc21 ?
< 5.70

Same thing, different molecule: Cc1nc2sc(C(=O)N[C@@H]3CCc4cc(N5CC6CCC(C5)N6)ccc4C3)c(N)c2cc1F (single isomer, unassigned)
6.70 to 7.30

Now this one: Cc1cnc2c(N)c(C(=O)N[C@H]3COc4cc(N5CC6CNCC(C5)O6)cc(F)c4C3)sc2n1
7.30 to 9.00

Repeat for the following molecule: CCc1cnc2sc(C(=O)N[C@H]3COc4cc(N5CCNCC5)ccc4C3)c(N)c2n1
5.70 to 6.70

Next molecule up: Cc1ccc2c(N)c(C(=O)N[C@H]3COc4cc(N5C[C@H]6CC[C@@H]5CN6)ncc4C3)sc2n1
6.70 to 7.30

Please answer likewise for CO[C@H]1CN(c2ccc3c(c2)OC[C@H](NC(=O)c2sc4nc(C)sc4c2N)C3)C[C@@H]1N
5.70 to 6.70
